# tested.on: human FXR (NR1H4) (Homo sapiens, UniProt Q96RI1)
# Sequence (Q96RI1 1-486): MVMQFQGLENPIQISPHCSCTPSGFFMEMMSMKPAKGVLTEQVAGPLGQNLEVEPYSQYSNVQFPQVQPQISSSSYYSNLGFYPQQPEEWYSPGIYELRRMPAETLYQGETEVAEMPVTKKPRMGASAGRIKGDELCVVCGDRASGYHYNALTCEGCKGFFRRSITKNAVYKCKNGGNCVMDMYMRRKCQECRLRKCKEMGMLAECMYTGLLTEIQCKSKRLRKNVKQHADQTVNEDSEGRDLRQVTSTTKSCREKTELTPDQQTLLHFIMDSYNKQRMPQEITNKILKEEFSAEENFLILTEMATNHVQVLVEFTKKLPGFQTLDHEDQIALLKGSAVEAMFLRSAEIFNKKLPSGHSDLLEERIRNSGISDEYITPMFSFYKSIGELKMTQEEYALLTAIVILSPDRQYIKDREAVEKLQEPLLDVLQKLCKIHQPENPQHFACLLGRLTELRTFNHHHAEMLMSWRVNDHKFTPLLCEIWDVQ
# assay.explanation: Human FXR (NR1H4) Assay: Gal4 promoter driven luciferase reporter transactivation in CHO cells (Indigo Bioscience kit IB00601)
# Type: cell-based
# setup.conditions: potency range, Human FXR (NR1H4) reporter assay in CHO cells; read-out: EC50
parameter: EC50

# per-item lookup of EC50; items listed below
1. O=C(Nc1nc2ccccc2s1)N1C2CCC1CC(OCc1c(-c3c(Cl)cccc3Cl)noc1C1CC1)C2 (stereo not drawn) [Example 23]
2. O=C(O)c1cc(F)c(NC(=O)N2C3CCC2CC(OCc2c(-c4c(Cl)cccc4Cl)noc2C2CC2)C3)cc1-c1ccccc1 (stereo not drawn) [Example 797]
3. COC(=O)c1cc(OC)c(NC(=O)N2C3CCC2CC(OCc2c(-c4c(Cl)cccc4Cl)noc2C2CC2)C3)cc1-c1ccccc1 (stereo not drawn) [Example 792]
4. O=C(O)c1ccc2c(c1)N(C(=O)N1C3CCC1CC(OCc1c(-c4ccccc4OC(F)(F)F)noc1C1CC1)C3)CC2 (stereo not drawn) [Example 590]
5. O=C(O)c1ccc(NC(=O)N2C3CCC2CC(OCc2c(-c4ccccc4C4CC4)noc2C2CC2)C3)c(F)c1 (stereo not drawn) [Example 809]
6. CCOc1cc(C(=O)O)ccc1NC(=O)N1C2CCC1CC(OCc1c(-c3ccccc3C(F)(F)F)noc1C1CC1)C2 (stereo not drawn) [Example 812]

10 to 100 nM
< 10 nM
< 10 nM
> 1000 nM
10 to 100 nM
10 to 100 nM

// batch mode: one EC50 value per listed entry
1. COC(=O)c1ccc(NC(=O)N2C3CCC2CC(OCc2c(-c4c(Cl)cccc4Cl)noc2C2CC2)C3)cc1-c1ccc(C(F)(F)F)nc1 (stereo not drawn) [Example 796]
2. O=C(Nc1ccc(F)cc1)N1C2CCC1CC(OCc1c(-c3c(Cl)cccc3Cl)noc1C1CC1)C2 (stereo not drawn) [Example 698]
3. O=C(O)c1ccc(NC(=O)N2C3CCC2CC(OCc2c(-c4ccccc4OC(F)(F)F)noc2C2CC2)C3)c(F)c1 (stereo not drawn) [Example 239]

1. < 10 nM
2. 10 to 100 nM
3. 10 to 100 nM

Would you mind listing EC50 for each of the following compounds?
1. O=C(O)c1ccc(NC(=O)N2C3CCC2CC(OCc2c(-c4ccccc4C(F)(F)F)noc2C2CC2)C3)c(C(F)(F)F)c1 (stereo not drawn) [Example 817]
2. CCOC(=O)c1cccc(NC(=O)N2C3CCC2CC(OCc2c(-c4ccccc4OC(F)(F)F)noc2C2CC2)C3)c1 (stereo not drawn) [Example 227]

["10 to 100 nM", "10 to 100 nM"]
